- study target: T1, human PTH receptor (Mus musculus, UniProt P41593)
- T1 construct: mouse cranial bone-derived osteoblast-like cell strain MC3T3-EI cultivated on a 96-well multiplate; endogenous in cells; host or cells: MC3T3-E1 (mouse cranial bone-derived osteoblast-like cells)
- T1 sequence (P41593 27-591): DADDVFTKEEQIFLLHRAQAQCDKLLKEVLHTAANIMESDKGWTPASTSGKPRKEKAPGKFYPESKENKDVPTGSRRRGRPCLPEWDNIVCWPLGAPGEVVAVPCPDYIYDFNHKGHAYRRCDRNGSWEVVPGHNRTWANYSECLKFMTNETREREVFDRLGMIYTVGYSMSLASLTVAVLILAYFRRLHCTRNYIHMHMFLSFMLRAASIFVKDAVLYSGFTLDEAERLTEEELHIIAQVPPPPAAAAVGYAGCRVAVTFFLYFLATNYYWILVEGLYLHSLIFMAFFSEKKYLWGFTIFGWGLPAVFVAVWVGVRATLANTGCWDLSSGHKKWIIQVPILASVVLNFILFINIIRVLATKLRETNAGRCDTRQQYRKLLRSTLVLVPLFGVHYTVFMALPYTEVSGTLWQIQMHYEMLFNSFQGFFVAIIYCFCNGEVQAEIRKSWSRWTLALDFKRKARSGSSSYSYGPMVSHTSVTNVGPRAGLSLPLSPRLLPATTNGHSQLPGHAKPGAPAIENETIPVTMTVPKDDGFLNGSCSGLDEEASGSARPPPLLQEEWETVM
- measurement notes: cAMP production in osteoblast-like MC3T3-EI cells (modified method of Shigeno et al.)
- Format: cell-based
- test parameters: specific activity of the muteins on the natural type human PTH (=1.0), 0.01-100 nM analogue, room temperature, 30 minutes
measurement label: Specific Activity
Numbers only.

Query string: Entry [Cys^35 ] human PTH: human PTH (1-84) mutein in which valine at the 35-position was substituted by cysteine (protein) SVSEIQLMHNLGKHLNSMERVEWLRKKLQDVHNFCALGAPLAPRDAGSQRPRKKEDNVLVESHEKSLGEADKADVNVLTKAKSQ has what Specific Activity?
Result string: 0.6
